Tested on: heart failure canines
Experiment: Hemodynamic efficacy in heart failure canines (tachycardia-pacing model)
Type: in vivo, beagle dogs
Details: heart failure canines; i.v. infusion; Dose Rate (μmol/kg/min): CXL-1020 100, (1) 75, (2) 100, (83) 65, (84) 77
Known ESP of a selection of compounds
Numeric only. Scale: % Change from Baseline

Ask: Endpoint output: ESP of CS(=O)(=O)c1ccccc1S(=O)(=O)NO [CXL-1020, reference compound] . Value?
Reply: −14.78

Ask: Now this one: O=S(=O)(NO)c1ccco1 [Compound 83, N-Hydroxyfuran-2-sulfonamide]
Reply: −18.52

Ask: And for Cc1ccc(S(=O)(=O)NO)s1 [Compound 84] ?
Reply: −13.72

Ask: Moving on to CS(=O)(=O)c1cccc(S(=O)(=O)NO)c1 [Compound 2]
Reply: −13.83

Ask: # iterate: Cc1ccc(S(=O)(=O)NO)o1 [Compound 1, N-Hydroxy-5-methylfuran-2-sulfonamide]
Reply: −17

----------
Assay: In vitro stability (half-life) in phosphate buffered saline (PBS) pH 7.4
Format: physicochemical
Conditions: pH 7.4, 5 μM, PBS pH 7.4, 37° C., read-out: T1/2 (minutes) PBS
Class field: derived from half-life at 5 μM; ranges 0: < 30 min; 1: ≥ 30 min and < 70 min; 2: ≥ 70 min

molecule="Cn1cc(S(=O)(=O)NO)cn1 [Compound 31]" answer_label=2
molecule="CCN(CC)C(=O)c1ccc(S(=O)(=O)NO)s1 [Compound 19]" answer_label=1
molecule="O=S(=O)(NO)c1ccc(Cl)c(Cl)c1 [Compound 95]" answer_label=2
molecule="CS(=O)(=O)c1csc(S(=O)(=O)NO)c1 [Compound 16]" answer_label=0
molecule="O=S(=O)(NO)c1cccc2ccoc12 [Compound 4, N-Hydroxy-1-benzofuran-7-sulfonamide]" answer_label=2

Ask: Class? Entry: O=S(=O)(NO)c1cc(S(=O)(=O)c2ccccc2)cs1 [Compound 51]
Reply: 0

Ask: Here is the next molecule: Cc1ccc(S(=O)(=O)NO)s1 [Compound 84]
Reply: 2

Ask: Subsequent entry: O=S(=O)(NO)c1ccc2nsnc2c1 [Compound 15]
Reply: 1

Ask: And for CC(=O)N1CCc2cc(Cl)c(S(=O)(=O)NO)cc21 [Compound 11] ?
Reply: 0

Ask: And Cc1ccc(F)cc1S(=O)(=O)NO [Compound 90] ?
Reply: 0

Ask: Continue with Cc1cc(S(=O)(=O)NO)c(C)cc1Cl [Compound 18]
Reply: 1

Ask: Repeat for the following molecule: O=[N+]([O-])c1cc(S(=O)(=O)NO)sc1Cl [Compound 47]
Reply: 0

Ask: Another molecule to check: O=S(=O)(NO)c1ccc(Cl)s1 [Compound 86]
Reply: 1

Ask: Request: CS(=O)(=O)c1cc(S(=O)(=O)NO)cs1 [Compound 8]
Reply: 1

Ask: Query O=S(=O)(NO)c1cccc2nsnc12 [Compound 24] next
Reply: 1

Ask: Now consider O=S(=O)(NO)c1ccc(F)c(Cl)c1 [Compound 87] .
Reply: 2

Ask: And for O=S(=O)(NO)c1cc(CO)ccc1Cl [Compound 10] ?
Reply: 0

Ask: Entry O=S(=O)(NO)c1cccc(Br)c1 [Compound 89, 3-Bromo-N-hydroxybenzene-1-sulfonamide] please
Reply: 2

Ask: Subsequent entry: O=S(=O)(NO)c1ccccn1 [Compound 32, N-Hydroxypyridine-2-sulfonamide]
Reply: 1

Ask: # iterate: CS(=O)(=O)c1ccc(S(=O)(=O)NO)s1 [Compound 23]
Reply: 1

Ask: Try the molecule O=C(c1cc(S(=O)(=O)NO)cs1)N1CCOCC1 [Compound 28]
Reply: 2

----------
System: normal canines
Assay: Hemodynamic efficacy in normal canines (pressure-volume loop analysis)
Assay type: in vivo, beagle dogs
Details: i.v. infusion, Dose Rate (μmol/kg/min): CXL-1020 100, (1) 50, (2) 100, (83) 65, (84) 77
We label by threshold. Values of ESPVR strictly beneath 30 % Change from Baseline are class 1. Values of 30 % Change from Baseline and up are class 0.

Illustrative cases are given below, each with its answer.
molecule="Cc1ccc(S(=O)(=O)NO)o1 [Compound 1, N-Hydroxy-5-methylfuran-2-sulfonamide]" answer_label="class 1"
molecule="CS(=O)(=O)c1cccc(S(=O)(=O)NO)c1 [Compound 2]" answer_label="class 1"

Ask: Below 30 % Change from Baseline on ESPVR? Entry Cc1ccc(S(=O)(=O)NO)s1 [Compound 84]
Reply: class 0

Ask: Also CS(=O)(=O)c1ccccc1S(=O)(=O)NO [CXL-1020, reference compound] ?
Reply: class 1

----------
Item-by-item account of half-life at 5 μM
Test: In vitro stability (half-life) in phosphate buffered saline (PBS) pH 7.4
Assay type: physicochemical
Details: pH 7.4, 5 μM, PBS pH 7.4, 37° C., read-out: T1/2 (minutes) PBS
# value in min; strip the unit string

compound=O=S(=O)(NO)c1cccc(S(=O)(=O)NO)c1 reading=38
compound=Cc1noc(C)c1S(=O)(=O)NO reading=211
compound=CS(=O)(=O)c1ccc(S(=O)(=O)NO)cc1 reading=68
compound=O=S(=O)(NO)c1cccc(OC(F)(F)F)c1 reading=58
compound=Cn1ccc(S(=O)(=O)NO)n1 reading=59
compound=Cc1ccc(C)c(S(=O)(=O)NO)c1 reading=87
compound="O=S(=O)(NO)c1ccco1 [Compound 83, N-Hydroxyfuran-2-sulfonamide]" reading=37
compound=O=C(c1csc(S(=O)(=O)NO)c1)N1CCOCC1 reading=58
compound=COc1ccc(Br)cc1S(=O)(=O)NO reading=59
compound="O=S(=O)(NO)c1cccnc1 [Compound 26, N-Hydroxypyridine-3-sulfonamide]" reading=53

Turning now to a further record.
Ask: State the recorded half-life at 5 μM for this entry: `Cc1cc(S(=O)(=O)NO)c(C(F)(F)F)o1`
Reply: 224

----------
Experiment: HNO production determined via N2O quantification (GC headspace analysis)
Assay type: physicochemical
Conditions: PBS, 37° C., 360 minutes incubation
Experimental: Nitrous oxide (N2O) is produced via the dimerization and dehydration of HNO, and is the most common marker for nitroxyl production (Fukuto et al., Chem. Res. Toxicol. 18:790-801 (2005)). […] All determinations used a batch of nominal 20 mL headspace vials with volumes pre-measured for sample uniformity (actual vial volume varied by <2.0% relative standard deviation (n=6)). […]
value kind: Relative N2O Yield (360 minutes incubation) (%)
Kindly answer with a numeric value in %, unit omitted.

Answered examples (3):
molecule=Cc1cc(S(=O)(=O)NO)c(C)cc1Cl unit=% reading=73
molecule=Cc1cc(F)ccc1S(=O)(=O)NO unit=% reading=75
molecule=Cc1oncc1S(=O)(=O)NO unit=% reading=56

Ask: Using the record for O=S(=O)(NO)c1ccco1 [Compound 83, N-Hydroxyfuran-2-sulfonamide] , report its Relative N2O Yield (360 minutes incubation).
Reply: 86

Ask: # iterate: `CC(=O)N1CCc2cc(Cl)c(S(=O)(=O)NO)cc21`
Reply: 81

Ask: Then this molecule: `COc1ccc(Br)cc1S(=O)(=O)NO`
Reply: 77

Ask: Cool, now `Cc1ccc(S(=O)(=O)NO)s1`
Reply: 67

Ask: Queued: `Cc1ccc(F)c(S(=O)(=O)NO)c1`
Reply: 78

Ask: What do you have for `Cc1noc(C)c1S(=O)(=O)NO` ?
Reply: 66

Ask: Same question for `O=[N+]([O-])c1cc(S(=O)(=O)NO)sc1Cl` please.
Reply: 70

Ask: What about this molecule? `CC(C)NC(=O)c1cc(S(=O)(=O)NO)cs1`
Reply: 72

Ask: `CS(=O)(=O)c1cccc(S(=O)(=O)NO)c1` , same question.
Reply: 94

Ask: Next up: `O=S(=O)(NO)c1cccc2nsnc12`
Reply: 69

Ask: Same question for `Cc1ccc(C)c(S(=O)(=O)NO)c1` please.
Reply: 68

Ask: Now consider COc1ccccc1S(=O)(=O)NO [Compound 25, N-Hydroxy-2-methoxybenzene-1-sulfonamide] and answer again.
Reply: 28

Ask: # repeat for `O=S(=O)(NO)c1cccc(S(=O)(=O)NO)c1`
Reply: 100

----------
Assay: In vitro stability (half-life) in rat plasma
Assay type: in vitro ADME
Settings: 5 μM, rat plasma pH 7.4 with anticoagulant, 37° C.
value kind: T1/2 (minutes) Rat (min)
Supply the numeric figure in min, leaving out any unit text.

Below, 3 molecules whose answers are already recorded.
molecule=O=S(=O)(NO)c1cccc(OC(F)(F)F)c1 value_kind="T1/2 (minutes) Rat" unit=min reading=35.1
molecule=Cc1ccc(F)cc1S(=O)(=O)NO value_kind="T1/2 (minutes) Rat" unit=min reading=7
molecule="Cc1noc(C)c1S(=O)(=O)NO [Compound 91]" value_kind="T1/2 (minutes) Rat" unit=min reading=176

Ask: Looking for the measured T1/2 (minutes) Rat of Cc1noc(C)c1S(=O)(=O)NO [Compound 27] , can you help?
Reply: 75
